# Test Name: Therapeutic ratio was determined for intraperitoneal administration
# Type: ADME
# Applied Conditions: ip; read-out: TR
Here, each record is paired with measured selectivity ratio data.
Please reply with the number alone, leaving off any unit.

Ask: Look at this molecule and give its reported selectivity ratio. COc1cc2c(c(OC)c1OC)-c1ccc(OC)c(=O)cc1[C@@H](NC(C)=O)CC2
Result: 1.5

Ask: Reported selectivity ratio for Cc1ccccc1/C=C1\CSCC2C1=NN(CCCN1CCN(C)CC1)C2c1ccccc1C.O=C(O)/C=C\C(=O)O (stereo unspecified) : what is it?
Result: 5.7

Ask: I have this molecule here, COc1ccc(/C=C2\CS(=O)(=O)CC3C2=NN(CCCN2CCN(C)CC2)C3c2ccc(OC)cc2)cc1.O=C(O)/C=C\C(=O)O (stereo unspecified) , and I need its recorded selectivity ratio.
Result: 9.6

Next:
Ask: I have this molecule here, CC(=O)N1N=C2/C(=C/c3cccc(C(F)(F)F)c3)CS(=O)(=O)CC2C1c1cccc(C(F)(F)F)c1 (stereo unspecified) , and I need its recorded selectivity ratio.
Result: 24

Ask: Reported selectivity ratio for CCCN1N=C2/C(=C/c3ccc(C)cc3)CS(=O)(=O)CC2C1c1ccc(C)cc1 (stereo unspecified) : what is it?
Result: 24
